Data credit: patent US20220127247A1

# test system: delF508-CFTR (Homo sapiens, UniProt P13569, DEL508-508)
# Construct: expressed in transfected cells
# Sequence (P13569 with tags, fused parts or gaps DEL508-508): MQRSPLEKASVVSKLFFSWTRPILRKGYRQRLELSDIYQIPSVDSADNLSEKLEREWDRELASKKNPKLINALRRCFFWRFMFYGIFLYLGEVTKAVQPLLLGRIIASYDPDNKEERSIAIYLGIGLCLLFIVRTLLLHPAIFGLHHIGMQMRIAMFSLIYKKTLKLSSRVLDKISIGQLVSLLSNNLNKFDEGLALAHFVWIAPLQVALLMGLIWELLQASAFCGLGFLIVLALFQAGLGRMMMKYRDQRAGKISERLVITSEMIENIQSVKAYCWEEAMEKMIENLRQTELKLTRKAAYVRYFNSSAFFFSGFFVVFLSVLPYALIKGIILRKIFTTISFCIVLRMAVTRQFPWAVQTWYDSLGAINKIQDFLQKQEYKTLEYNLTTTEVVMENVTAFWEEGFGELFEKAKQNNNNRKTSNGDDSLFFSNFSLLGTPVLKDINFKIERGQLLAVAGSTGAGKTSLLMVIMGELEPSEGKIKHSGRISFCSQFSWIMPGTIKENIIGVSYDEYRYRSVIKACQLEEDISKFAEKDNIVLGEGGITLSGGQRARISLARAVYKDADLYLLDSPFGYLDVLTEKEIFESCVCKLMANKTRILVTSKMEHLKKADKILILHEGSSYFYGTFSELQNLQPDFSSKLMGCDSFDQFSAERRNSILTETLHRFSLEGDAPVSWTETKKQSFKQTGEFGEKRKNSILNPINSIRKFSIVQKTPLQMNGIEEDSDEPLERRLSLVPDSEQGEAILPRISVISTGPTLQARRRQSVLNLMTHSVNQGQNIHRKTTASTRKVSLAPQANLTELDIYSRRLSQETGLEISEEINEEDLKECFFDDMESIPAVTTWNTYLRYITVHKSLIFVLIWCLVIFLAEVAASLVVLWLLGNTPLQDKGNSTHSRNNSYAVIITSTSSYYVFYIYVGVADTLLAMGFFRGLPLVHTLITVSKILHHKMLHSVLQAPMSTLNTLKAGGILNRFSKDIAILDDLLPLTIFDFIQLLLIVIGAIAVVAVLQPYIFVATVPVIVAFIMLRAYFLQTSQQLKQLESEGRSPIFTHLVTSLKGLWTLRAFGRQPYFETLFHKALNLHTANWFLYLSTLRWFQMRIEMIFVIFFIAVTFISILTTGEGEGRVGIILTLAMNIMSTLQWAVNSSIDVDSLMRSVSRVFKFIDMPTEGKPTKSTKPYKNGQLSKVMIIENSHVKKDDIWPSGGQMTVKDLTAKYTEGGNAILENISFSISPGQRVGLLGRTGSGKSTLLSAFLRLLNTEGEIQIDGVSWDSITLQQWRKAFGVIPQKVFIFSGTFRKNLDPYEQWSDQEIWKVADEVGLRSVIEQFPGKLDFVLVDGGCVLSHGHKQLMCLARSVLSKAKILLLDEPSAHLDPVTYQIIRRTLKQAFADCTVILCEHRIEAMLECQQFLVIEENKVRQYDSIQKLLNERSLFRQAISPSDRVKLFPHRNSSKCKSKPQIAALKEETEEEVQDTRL
# test details: delF508-CFTR functional activity in primary human bronchial epithelial cells (HBECs), Multi-Transepithelial Clamp Circuit (MTECC-24) assay
# Assay type: cell-based
# recorded conditions: test compound added 24 h before assay, with potentiator (S)-3-amino-6-methoxy-N-(3,3,3-trifluoro-2-hydroxy-2-methylpropyl)-5-(trifluoromethyl)picolinamide; relative to 2 μM 3-(6-(1-(2,2-difluorobenzo[d][1,3]dioxol-5-yl)cyclopropane-1-carboxamido)-3-methylpyridin-2-yl)benzoic acid + 0.5 μM N-(2,4-di-tert-butyl-5-hydroxyphenyl)-4-oxo-1,4-dihydroquinoline-3-carboxamide
The following compounds are listed with their measured MTECC24-CFHBEC Amax % values.
Enter your answer as a number in %; do not include the unit.

Reference set, count: 3
In [3]: df
Out[3]:
                              smiles_string      measured_quantity  unit_name  observed_result
0  CCc1ccccc1-c1nc(NS(=O)(=O)c2cccc(N(CCCC(=O)O)C(C)C)n2)ccc1C(F)(F)F  MTECC24-CFHBEC Amax %          %              202
1  Cc1ccccc1-c1nc(NS(=O)(=O)c2cccc(N(CCCC(=O)O)CCC(F)(F)F)n2)ccc1C(F)(F)F  MTECC24-CFHBEC Amax %          %              189
2  Cc1ccccc1-c1nc(NS(=O)(=O)c2cccc(N(CCC(=O)O)C3CC3)n2)ccc1C(F)(F)F  MTECC24-CFHBEC Amax %          %              151

**Query** Which MTECC24-CFHBEC Amax % is listed for `Cc1ccccc1-c1nc(NS(=O)(=O)c2cccc(N(C)CCCCC(=O)O)n2)ccc1C(F)(F)F` ?
**Result** 133

**Query** Need MTECC24-CFHBEC Amax % of `Cc1ccccc1-c1nc(NS(=O)(=O)c2cccc(N(CCCC(=O)O)C(C)C)n2)ccc1C(F)(F)F` , thanks.
**Result** 208

**Query** Returns the measured MTECC24-CFHBEC Amax % for the input compound. Input: `Cc1ccccc1-c1nc(NS(=O)(=O)c2cccc(N(CCC(=O)O)CC(C)C)n2)ccc1C(F)(F)F`
**Result** 277

**Query** What MTECC24-CFHBEC Amax % value was documented for this compound, `Cc1ccc(F)cc1-c1nc(NS(=O)(=O)c2cccc(N(CCCC(=O)O)C(C)C)n2)ccc1C(F)(F)F` ?
**Result** 148

----------
# test system: delF508-CFTR (Homo sapiens, UniProt P13569, DEL508-508)
# Construct: expressed in transfected cells
# test details: Measurement of delF508-CFTR-HRP surface expression in CFBE41o- cells
# Assay type: cell-based
# recorded conditions: HRP-tagged delF508-CFTR in CFBE41o- cells, 24 h with compound, luminescence, 10-point curve, top 10 μM
measured quantity: pEC50
Remember, pEC50 is on a log scale: it is -log10 of the molar concentration.

Use these answered entries as a reference point.
>>> df
                                   compound  measured_quantity  observed_result
0  Cc1ccc(F)cc1-c1nc(NS(=O)(=O)c2cccc(N3CCC(C)(CC(=O)O)CC3)n2)ccc1C(F)(F)F              pEC50             5.82
1  Cc1ccccc1-c1nc(NS(=O)(=O)c2cccc(N(CCC(=O)O)C3CCC3)n2)ccc1C(F)(F)F              pEC50             5.94
2  Cc1ccc(F)cc1-c1nc(NS(=O)(=O)c2cccc(N(CCC(=O)O)CC3CC3)n2)ccc1C(F)(F)F              pEC50             5.75
3  CCCCN(CCCC(=O)O)c1cccc(S(=O)(=O)Nc2ccc(Cl)c(-c3cccnc3C(C)C)n2)n1              pEC50             5.80
4  Cc1ccccc1-c1nc(NS(=O)(=O)c2cccc(N3CCC(CC(=O)O)CC3)n2)ccc1C(F)(F)F              pEC50             5.59

**Query** Param readout = pEC50; param system = delF508-CFTR (Homo sapiens, UniProt P13569, DEL508-508); param query = Cc1ccccc1-c1nc(NS(=O)(=O)c2cccc(N3CCCCC3CCC(=O)O)n2)ccc1C(F)(F)F (stereo not shown) ; response: value
**Result** 5.81

**Query** Value wanted: pEC50 (delF508-CFTR (Homo sapiens, UniProt P13569, DEL508-508)) of entry `Cc1ccccc1-c1nc(NS(=O)(=O)c2cccc(NCC(=O)O)n2)ccc1C(F)(F)F`
**Result** 5.60
